- System: UO-31
- Assay notes: Growth inhibition of human UO31 cells incubated for 48 hrs by sulforhodamine B assay
- Assay type: functional
- Assay context: UO-31, 48 h
We begin with a simple list: items and their reported GI50.
// note: answer is a bare numeric in nM

| Molecule | GI50 (nM) |
| --- | --- |
| COc1cc(C(=O)/C=C/c2cccc(Nc3ccnc4cc(Cl)ccc34)c2)cc(OC)c1OC | 570 |
| COc1cccc2c1C(=O)c1c(O)c3c(c(O)c1C2=O)C[C@@](O)(C(=O)CO)C[C@@H]3O[C@H]1C[C@H](N)[C@H](O)[C@H](C)O1 [DOXORUBICIN] | 490 |
| COc1ccc(C(=O)/C=C/c2cccc(Nc3ccnc4cc(Cl)ccc34)c2)cc1 | 1030 |
| COc1ccc(C2=NN(C=O)C(c3cccc(Nc4ccnc5cc(Cl)ccc45)c3)C2)cc1 (stereo not given) | 3250 |

## Input What GI50 appears in the records for this molecule with UO-31? O=CN1N=C(c2ccc(Cl)cc2)CC1c1cccc(Nc2ccnc3cc(Cl)ccc23)c1 (stereo not given)
## Output 1700

====

- System: NCI/ADR-RES
- Assay notes: Growth inhibition of human NCI/ADR-RES cells incubated for 48 hrs by sulforhodamine B assay
- Type: functional
- Assay context: read-out: LC50 (the source's name)
Measure name: CC50

Completed entries (count: 4):
| Compound | CC50 |
| --- | --- |
| COc1cc(C(=O)/C=C/c2cccc(Nc3ccnc4cc(Cl)ccc34)c2)cc(OC)c1OC | > 100 µM |
| COc1ccc(C(=O)/C=C/c2cccc(Nc3ccnc4cc(Cl)ccc34)c2)cc1 | > 100 µM |
| COc1ccc(C2=NN(C=O)C(c3cccc(Nc4ccnc5cc(Cl)ccc45)c3)C2)cc1 (stereo not given) | > 100 µM |
| COc1cccc2c1C(=O)c1c(O)c3c(c(O)c1C2=O)C[C@@](O)(C(=O)CO)C[C@@H]3O[C@H]1C[C@H](N)[C@H](O)[C@H](C)O1 [DOXORUBICIN] | 100 µM |

Next compound, CC50 to be filled in.
## Input Entry O=CN1N=C(c2ccc(Cl)cc2)CC1c1cccc(Nc2ccnc3cc(Cl)ccc23)c1 (stereo not given) has what CC50?
## Output > 100 µM

====

- System: SW-620
- Assay notes: Growth inhibition of human SW620 cells at 10 uM incubated for 48 hrs by sulforhodamine B assay
- Format: functional, cell-based
Activity calls are given as the source filed them. The rule behind the calls is not given here.
Outcome (select one): active, inactive

Here's what some known entries look like.
| Molecule | Discrete label |
| --- | --- |
| Clc1ccc(C2=NN(c3cc(Cl)cc(Cl)c3)C(c3cccc(Nc4ccnc5cc(Cl)ccc45)c3)C2)cc1 (stereo not given) | inactive |
| COc1ccc(C2=NN(C=O)C(c3cccc(Nc4ccnc5cc(Cl)ccc45)c3)C2)cc1 (stereo not given) | active |
| Clc1ccc(C2=NN(c3ccccc3)C(c3cccc(Nc4ccnc5cc(Cl)ccc45)c3)C2)cc1 (stereo not given) | inactive |
| O=CN1N=C(c2ccc(Cl)cc2)CC1c1cccc(Nc2ccnc3cc(Cl)ccc23)c1 (stereo not given) | active |
| COc1ccc(C2=NN(c3ccccc3)C(c3cccc(Nc4ccnc5cc(Cl)ccc45)c3)C2)cc1 (stereo not given) | inactive |
| COc1cc(C2=NN(c3ccc(Cl)cc3)C(c3cccc(Nc4ccnc5cc(Cl)ccc45)c3)C2)cc(OC)c1OC (stereo not given) | inactive |
| COc1ccc(C(=O)/C=C/c2cccc(Nc3ccnc4cc(Cl)ccc34)c2)cc1 | active |
| COc1cc(C(=O)/C=C/c2cccc(Nc3ccnc4cc(Cl)ccc34)c2)cc(OC)c1OC | active |
| Clc1ccc(C2=NN(c3ccc(Cl)cc3)C(c3cccc(Nc4ccnc5cc(Cl)ccc45)c3)C2)cc1 (stereo not given) | inactive |

With those in mind, consider the next molecule.
## Input Returns: the outcome recorded for COc1ccc(C2=NN(c3ccc(Cl)cc3)C(c3cccc(Nc4ccnc5cc(Cl)ccc45)c3)C2)cc1 (stereo not given) in this assay.
## Output inactive
